molecules and their reported MIC
Tested on: Salmonella enterica
PROCEDURE_DETAILS: Antibacterial activity against Salmonella enterica ATCC 14028 assessed as inhibition of bacterial growth incubated for 24 hrs by broth microdilution method
Assay type: functional
Give the quantity in µg/mL, number only.

Example results:
INSERT INTO measurements (molecule, test_result) VALUES
  ('C=C[C@]1(C)C[C@@H](OC(=O)CSc2nc(-c3cc[n+](Cc4cc(F)cc(F)c4)cc3)cs2)[C@]2(C)[C@H](C)CC[C@]3(CCC(=O)[C@H]32)[C@@H](C)[C@@H]1O.[Br-]', 16),
  ('C=C[C@]1(C)C[C@@H](OC(=O)CSc2nnc(-c3cc[n+](Cc4ccc(C)cc4)cc3)o2)[C@]2(C)[C@H](C)CC[C@]3(CCC(=O)[C@H]32)[C@@H](C)[C@@H]1O.[Br-]', 32),
  ('C=C[C@]1(C)C[C@@H](OC(=O)CSc2nnc(-c3ccncc3)o2)[C@]2(C)[C@H](C)CC[C@]3(CCC(=O)[C@H]32)[C@@H](C)[C@@H]1O', 64);

--- query ---
[ask] Recorded MIC of "C=C[C@]1(C)C[C@@H](OC(=O)CSc2nc(-c3cc[n+](Cc4ccc(C)cc4)cc3)cs2)[C@]2(C)[C@H](C)CC[C@]3(CCC(=O)[C@H]32)[C@@H](C)[C@@H]1O.[Br-]" , please.
[reply] 2

====

System: Klebsiella pneumoniae
PROCEDURE_DETAILS: Antibacterial activity against multidrug-resistant Klebsiella pneumoniae 893 assessed as inhibition of bacterial growth incubated for 24 hrs by broth microdilution method
Type: functional
QUANTITY_KIND: MIC

Example results:
INSERT INTO assay_data (molecule, system_tested, quantity_kind, test_result) VALUES
  ('Br.C=C[C@]1(C)C[C@@H](OC(=O)CSc2nc(-c3cc[n+](Cc4ccc([N+](=O)[O-])cc4)cc3)cs2)[C@]2(C)[C@H](C)CC[C@]3(CCC(=O)[C@H]32)[C@@H](C)[C@@H]1O', 'Klebsiella pneumoniae', 'MIC', '16 µg/mL'),
  ('C=C[C@]1(C)C[C@@H](OC(=O)CS[C@@H]2C[C@H]3CC[C@@H](C2)N3C)[C@]2(C)[C@H](C)CC[C@]3(CCC(=O)[C@H]32)[C@@H](C)[C@@H]1O', 'Klebsiella pneumoniae', 'MIC', '64 µg/mL'),
  ('C=C[C@]1(C)C[C@@H](OC(=O)CSc2nc(-c3cc[n+](Cc4ccc(C)cc4)cc3)cs2)[C@]2(C)[C@H](C)CC[C@]3(CCC(=O)[C@H]32)[C@@H](C)[C@@H]1O.[Br-]', 'Klebsiella pneumoniae', 'MIC', '16 µg/mL'),
  ('C=C[C@]1(C)C[C@@H](OC(=O)CSc2nc(-c3cc[n+](Cc4ccc(OC)cc4)cc3)cs2)[C@]2(C)[C@H](C)CC[C@]3(CCC(=O)[C@H]32)[C@@H](C)[C@@H]1O.[Br-]', 'Klebsiella pneumoniae', 'MIC', '64 µg/mL');

[ask] Recorded MIC of "COc1c(N2C[C@@H]3CCCN[C@@H]3C2)c(F)cc2c(=O)c(C(=O)O)cn(C3CC3)c12" , please.
[reply] 16 µg/mL

====

PROCEDURE_DETAILS: Cmax in Sprague-Dawley rat at 1 mg/kg, iv by LC-MS analysis
Format: ADME, organism-based
Design: dose 1 mg/kg, route iv
CONDITION_LABEL: in vivo
QUANTITY_KIND: Cmax (ng/mL)
Give the quantity in ng/mL, number only.

[ask] Recorded Cmax of "C=C[C@]1(C)C[C@@H](OC(=O)CSc2nc(-c3cc[n+](Cc4ccc(C)cc4)cc3)cs2)[C@]2(C)[C@H](C)CC[C@]3(CCC(=O)[C@H]32)[C@@H](C)[C@@H]1O.[Br-]" , please.
[reply] 9670

====

System: Staphylococcus aureus
PROCEDURE_DETAILS: Antibacterial activity against methicillin-resistant Staphylococcus aureus ATCC 33591 assessed as inhibition of bacterial growth incubated for 24 hrs by broth microdilution method
Assay type: functional
QUANTITY_KIND: MIC (µg/mL)
Give the quantity in µg/mL, number only.

INSERT INTO assay_data (molecule, system_tested, quantity_kind, test_result) VALUES
  ('C=C[C@]1(C)C[C@@H](OC(=O)CSc2nnc(-c3cc[n+](Cc4ccccc4)cc3)o2)[C@]2(C)[C@H](C)CC[C@]3(CCC(=O)[C@H]32)[C@@H](C)[C@@H]1O.[Br-]', 'Staphylococcus aureus', 'MIC', 64),
  ('C=C[C@]1(C)C[C@@H](OC(=O)CSc2nc(-c3cc[n+](Cc4ccc(C)cc4)cc3)cs2)[C@]2(C)[C@H](C)CC[C@]3(CCC(=O)[C@H]32)[C@@H](C)[C@@H]1O.[Br-]', 'Staphylococcus aureus', 'MIC', 1);

--- query ---
[ask] Recorded MIC of "C=C[C@]1(C)C[C@@H](OC(=O)CSc2nc(-c3cc[n+](Cc4ccc(Br)cc4)cc3)cs2)[C@]2(C)[C@H](C)CC[C@]3(CCC(=O)[C@H]32)[C@@H](C)[C@@H]1O.[Br-]" , please.
[reply] 2

====

molecules and their reported MIC
Tested on: Staphylococcus aureus
PROCEDURE_DETAILS: Antibacterial activity against methicillin-resistant Staphylococcus aureus ATCC 33591 assessed as inhibition of bacterial growth incubated for 24 hrs by broth microdilution method
Type: functional

Example results:
INSERT INTO measurements (molecule, system_tested, test_result) VALUES
  ('C=C[C@]1(C)C[C@@H](OC(=O)CSc2nc(-c3cc[n+](CCCCCCCCCC)cc3)cs2)[C@]2(C)[C@H](C)CC[C@]3(CCC(=O)[C@H]32)[C@@H](C)[C@@H]1O.[Br-]', 'Staphylococcus aureus', '1 µg/mL'),
  ('C=C[C@]1(C)C[C@@H](OC(=O)CSc2nc(-c3cc[n+](Cc4ccsc4)cc3)cs2)[C@]2(C)[C@H](C)CC[C@]3(CCC(=O)[C@H]32)[C@@H](C)[C@@H]1O.[Br-]', 'Staphylococcus aureus', '1 µg/mL'),
  ('C=C[C@]1(C)C[C@@H](OC(=O)CSc2nc(-c3cc[n+](Cc4ccc(C(C)(C)C)cc4)cc3)cs2)[C@]2(C)[C@H](C)CC[C@]3(CCC(=O)[C@H]32)[C@@H](C)[C@@H]1O.[Br-]', 'Staphylococcus aureus', '1 µg/mL'),
  ('C=C[C@]1(C)C[C@@H](OC(=O)CSc2nc(-c3cc[n+](Cc4cc(OC)cc(OC)c4)cc3)cs2)[C@]2(C)[C@H](C)CC[C@]3(CCC(=O)[C@H]32)[C@@H](C)[C@@H]1O.[Br-]', 'Staphylococcus aureus', '64 µg/mL'),
  ('C=C[C@]1(C)C[C@@H](OC(=O)CSc2nc(-c3cc[n+](Cc4ccc(C(F)(F)F)cc4)cc3)cs2)[C@]2(C)[C@H](C)CC[C@]3(CCC(=O)[C@H]32)[C@@H](C)[C@@H]1O.[Br-]', 'Staphylococcus aureus', '2 µg/mL'),
  ('C=C[C@]1(C)C[C@@H](OC(=O)CSc2nc(-c3cc[n+](CCCCCCCCCCCCCCCC)cc3)cs2)[C@]2(C)[C@H](C)CC[C@]3(CCC(=O)[C@H]32)[C@@H](C)[C@@H]1O.[Br-]', 'Staphylococcus aureus', '> 128 µg/mL'),
  ('C=C[C@]1(C)C[C@@H](OC(=O)CSc2nnc(-c3ccncc3)o2)[C@]2(C)[C@H](C)CC[C@]3(CCC(=O)[C@H]32)[C@@H](C)[C@@H]1O', 'Staphylococcus aureus', '64 µg/mL'),
  ('C=C[C@]1(C)C[C@@H](OC(=O)CSc2nc(-c3cc[n+](Cc4ccc(-c5ccccc5)cc4)cc3)cs2)[C@]2(C)[C@H](C)CC[C@]3(CCC(=O)[C@H]32)[C@@H](C)[C@@H]1O.[Br-]', 'Staphylococcus aureus', '2 µg/mL'),
  ('C=C[C@]1(C)C[C@@H](OC(=O)CSC(C)(C)CNC(=O)[C@H](N)C(C)C)[C@]2(C)[C@H](C)CC[C@]3(CCC(=O)[C@H]32)[C@@H](C)[C@@H]1O', 'Staphylococcus aureus', '128 µg/mL');

--- query ---
[ask] Recorded MIC of "C=C[C@]1(C)C[C@@H](OC(=O)CSc2nc(-c3cc[n+](Cc4ccc(OC(F)(F)F)cc4)cc3)cs2)[C@]2(C)[C@H](C)CC[C@]3(CCC(=O)[C@H]32)[C@@H](C)[C@@H]1O.[Br-]" , please.
[reply] 2 µg/mL

====

compounds and their reported MIC
Test system: Staphylococcus aureus
PROCEDURE_DETAILS: Antibacterial activity against methicillin-resistant Staphylococcus aureus ATCC 33591 assessed as inhibition of bacterial growth incubated for 24 hrs by broth microdilution method
Format: functional
Give the quantity in µg/mL, number only.

Example results:
INSERT INTO measurements (compound, quantity_kind, unit_of_measure, test_result) VALUES
  ('Br.C=C[C@]1(C)C[C@@H](OC(=O)CSc2nnc(-c3cc[n+](Cc4ccc([N+](=O)[O-])cc4)cc3)o2)[C@]2(C)[C@H](C)CC[C@]3(CCC(=O)[C@H]32)[C@@H](C)[C@@H]1O', 'MIC', 'µg/mL', 32),
  ('C=C[C@]1(C)C[C@@H](OC(=O)CSc2nc(-c3cc[n+](Cc4ccc(C#N)cc4)cc3)cs2)[C@]2(C)[C@H](C)CC[C@]3(CCC(=O)[C@H]32)[C@@H](C)[C@@H]1O.[Br-]', 'MIC', 'µg/mL', 64),
  ('C=C[C@]1(C)C[C@@H](OC(=O)CSc2nc(-c3cc[n+](Cc4cc(F)cc(F)c4)cc3)cs2)[C@]2(C)[C@H](C)CC[C@]3(CCC(=O)[C@H]32)[C@@H](C)[C@@H]1O.[Br-]', 'MIC', 'µg/mL', 64),
  ('C=C[C@]1(C)C[C@@H](OC(=O)CSc2nc(-c3cc[n+](Cc4ccc(OC)cc4)cc3)cs2)[C@]2(C)[C@H](C)CC[C@]3(CCC(=O)[C@H]32)[C@@H](C)[C@@H]1O.[Br-]', 'MIC', 'µg/mL', 1),
  ('C=C[C@]1(C)C[C@@H](OC(=O)CSc2nc(-c3cc[n+](CCCC)cc3)cs2)[C@]2(C)[C@H](C)CC[C@]3(CCC(=O)[C@H]32)[C@@H](C)[C@@H]1O.[Br-]', 'MIC', 'µg/mL', 2);

[ask] Recorded MIC of "C=C[C@]1(C)C[C@@H](OC(=O)CSc2nnc(-c3cc[n+](Cc4ccc(C#N)cc4)cc3)o2)[C@]2(C)[C@H](C)CC[C@]3(CCC(=O)[C@H]32)[C@@H](C)[C@@H]1O.[Br-]" , please.
[reply] 32

[ask] Now consider COc1c(N2C[C@@H]3CCCN[C@@H]3C2)c(F)cc2c(=O)c(C(=O)O)cn(C3CC3)c12 [MOXIFLOXACIN] and answer again.
[reply] 1

[ask] Now consider "C=C[C@]1(C)C[C@@H](OC(=O)CSc2nc(-c3ccncc3)cs2)[C@]2(C)[C@H](C)CC[C@]3(CCC(=O)[C@H]32)[C@@H](C)[C@@H]1O" and answer again.
[reply] 16

[ask] Now consider "Br.C=C[C@]1(C)C[C@@H](OC(=O)CSc2nc(-c3cc[n+](Cc4ccc([N+](=O)[O-])cc4)cc3)cs2)[C@]2(C)[C@H](C)CC[C@]3(CCC(=O)[C@H]32)[C@@H](C)[C@@H]1O" and answer again.
[reply] 1

[ask] Now consider "C=C[C@]1(C)C[C@@H](OC(=O)CSc2nc(-c3cc[n+](Cc4ccc5ccccc5c4)cc3)cs2)[C@]2(C)[C@H](C)CC[C@]3(CCC(=O)[C@H]32)[C@@H](C)[C@@H]1O.[Br-]" and answer again.
[reply] 16

[ask] Now consider "C=C[C@]1(C)C[C@@H](OC(=O)CSc2nc(-c3cc[n+](Cc4ccc(Cl)cc4)cc3)cs2)[C@]2(C)[C@H](C)CC[C@]3(CCC(=O)[C@H]32)[C@@H](C)[C@@H]1O.[Br-]" and answer again.
[reply] 2

The reported numbers originate from ChEMBL document CHEMBL5338747.
